Data provenance is ChEMBL document CHEMBL4364325.

Target: D(2) dopamine receptor (Homo sapiens, UniProt P14416)
Sequence (P14416 whole entry): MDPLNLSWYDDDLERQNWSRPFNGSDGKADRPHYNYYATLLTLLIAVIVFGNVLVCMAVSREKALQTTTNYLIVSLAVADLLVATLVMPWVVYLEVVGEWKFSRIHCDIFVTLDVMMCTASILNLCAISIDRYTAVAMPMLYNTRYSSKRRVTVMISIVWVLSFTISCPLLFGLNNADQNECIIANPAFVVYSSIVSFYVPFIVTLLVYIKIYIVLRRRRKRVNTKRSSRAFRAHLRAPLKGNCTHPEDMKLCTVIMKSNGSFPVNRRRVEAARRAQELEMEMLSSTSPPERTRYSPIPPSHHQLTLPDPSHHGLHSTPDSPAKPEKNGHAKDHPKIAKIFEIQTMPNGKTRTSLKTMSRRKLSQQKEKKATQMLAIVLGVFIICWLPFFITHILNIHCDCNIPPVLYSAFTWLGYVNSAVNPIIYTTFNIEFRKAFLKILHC
Experiment: Displacement of [3H]Spiperone from human D2S receptor expressed in CHO cell membranes
QUANTITY_KIND: Ki (nM)
Number in nM, nothing else.

-- ask Which Ki reading was recorded for the compound COc1ccc2[nH]cc(C3=CCN(Cc4cc(=O)[nH]c5ccccc45)CC3)c2c1 ?
-- reply 58

---

Biological target: D(3) dopamine receptor (Homo sapiens, UniProt P35462)
Sequence (P35462 whole entry): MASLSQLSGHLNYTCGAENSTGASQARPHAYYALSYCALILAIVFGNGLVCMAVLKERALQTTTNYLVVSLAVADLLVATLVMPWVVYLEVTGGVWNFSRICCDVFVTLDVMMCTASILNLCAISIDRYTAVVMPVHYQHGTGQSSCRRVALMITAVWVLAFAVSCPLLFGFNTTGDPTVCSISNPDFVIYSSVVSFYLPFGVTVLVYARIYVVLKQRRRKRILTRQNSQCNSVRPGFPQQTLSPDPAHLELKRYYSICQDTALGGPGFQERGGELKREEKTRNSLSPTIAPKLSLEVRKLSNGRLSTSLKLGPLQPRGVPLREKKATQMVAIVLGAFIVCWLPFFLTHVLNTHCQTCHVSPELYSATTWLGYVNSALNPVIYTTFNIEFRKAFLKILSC
QUANTITY_KIND: pKi
pKi is a log-scale quantity: -log10 of the concentration expressed in molar.

-- ask Under D(3) dopamine receptor (Homo sapiens, UniProt P35462): pKi value of COc1ccc2[nH]cc(C3=CCN(Cc4cc(=O)[nH]c5ccccc45)CC3)c2c1 ?
-- reply 6.21

---

Molecular target: D(2) dopamine receptor (Homo sapiens)
Test: Displacement of [3H]Spiperone from human D2S receptor expressed in CHOK1 cell membranes measured after 120 mins
QUANTITY_KIND: pKi
Scale note: pKi = -log10(concentration in M).

- COc1ccc(CN2CC=C(c3c[nH]c4ccc(OC(C)C)cc34)CC2)cc1: 6.78
- C1=C(c2c[nH]c3ccccc23)CCN(Cc2cccs2)C1: 7.14
- COc1ccc(CN2CC=C(c3c[nH]c4ccccc34)CC2)cc1: 7.06

-- ask Quick one: pKi of CCOc1ccc2[nH]cc(C3=CCN(Cc4cccs4)CC3)c2c1 ?
-- reply 6.78

-- ask // query pKi value for entry COc1cccc(CN2CC=C(c3c[nH]c4ccc(OC)cc34)CC2)c1
-- reply 6.95

-- ask // lookup pKi for CCOc1ccc2[nH]cc(C3=CCN(Cc4cccc(OC)c4)CC3)c2c1
-- reply 6.97

---

Parameter IC50, tested on 5-hydroxytryptamine receptor 2A (Homo sapiens), listed per item.
# include the unit after the value

Some solved cases for reference:
- COc1cccc(CN2CC=C(c3c[nH]c4ccccc34)CC2)c1: 7980 nM
- C1=C(c2c[nH]c3ccccc23)CCN(Cc2cccs2)C1: 2410 nM

Here is another molecule to look at.
-- ask Recorded IC50 of C1=C(c2c[nH]c3ccccc23)CCN(Cc2ccccc2)C1 , please.
-- reply 2620 nM

---

Target: 5-hydroxytryptamine receptor 2A (Homo sapiens, UniProt P28223)
Experiment: Displacement of [3H]ketanserin from human 5HT2A receptor expressed in HEK293 cell membranes at 10 uM measured after 30 mins relative to control
QUANTITY_KIND: inhibition (%)
Enter your answer as a number in %; do not include the unit.

Below, 5 molecules whose answers are already recorded.
- CC(C)Oc1ccc2[nH]cc(C3=CCN(Cc4ccccc4)CC3)c2c1: 32
- CCOc1ccc2[nH]cc(C3=CCN(Cc4cccc(OC)c4)CC3)c2c1: 3
- COc1ccc(CN2CC=C(c3c[nH]c4ccc(OC(C)C)cc34)CC2)cc1: 36
- CC(C)Oc1ccc2[nH]cc(C3=CCN(Cc4cccs4)CC3)c2c1: 14
- CCOc1ccc2[nH]cc(C3=CCN(Cc4ccc(OC)cc4)CC3)c2c1: 38

-- ask Find the recorded inhibition belonging to COc1ccc(CN2CC=C(c3c[nH]c4ccccc34)CC2)cc1 and report it.
-- reply 52

-- ask What value of measured inhibition is listed for COc1ccc2[nH]cc(C3=CCN(Cc4ccco4)CC3)c2c1 ?
-- reply 15

-- ask Which inhibition value belongs to COc1cccc(CN2CC=C(c3c[nH]c4ccc(OC(C)C)cc34)CC2)c1 ?
-- reply 43

-- ask What measured inhibition goes with COc1ccc(CN2CC=C(c3c[nH]c4ccc(OC)cc34)CC2)cc1 ?
-- reply 48

-- ask Quick check: inhibition of CC(C)Oc1ccc2[nH]cc(C3=CCN(Cc4ccco4)CC3)c2c1 ?
-- reply 5

-- ask I have this molecule here, CCOc1ccc2[nH]cc(C3=CCN(Cc4ccco4)CC3)c2c1 , and I need its recorded inhibition.
-- reply 47

-- ask Request the reported inhibition associated with COc1ccc2[nH]cc(C3=CCN(Cc4ccccc4)CC3)c2c1
-- reply 41

-- ask If you can, please state the reported inhibition value of CCOc1ccc2[nH]cc(C3=CCN(Cc4cccs4)CC3)c2c1 .
-- reply 0

-- ask Record request: inhibition value, item COc1cccc(CN2CC=C(c3c[nH]c4ccc(OC)cc34)CC2)c1
-- reply 24

---

Molecular target: 5-hydroxytryptamine receptor 2A (Homo sapiens)
Assay: Displacement of [3H]ketanserin from human 5HT2A receptor expressed in CHO cell membranes
QUANTITY_KIND: Ki (nM)
Your answer is read as nM, so omit the unit and give the number.

-- ask Reported Ki, compound COc1ccc2[nH]cc(C3=CCN(Cc4cc(=O)[nH]c5ccccc45)CC3)c2c1 : ____
-- reply 358

---

Entries and their pKi
Biological target: 5-hydroxytryptamine receptor 1A (Homo sapiens, UniProt P08908)
Sequence (P08908 whole entry): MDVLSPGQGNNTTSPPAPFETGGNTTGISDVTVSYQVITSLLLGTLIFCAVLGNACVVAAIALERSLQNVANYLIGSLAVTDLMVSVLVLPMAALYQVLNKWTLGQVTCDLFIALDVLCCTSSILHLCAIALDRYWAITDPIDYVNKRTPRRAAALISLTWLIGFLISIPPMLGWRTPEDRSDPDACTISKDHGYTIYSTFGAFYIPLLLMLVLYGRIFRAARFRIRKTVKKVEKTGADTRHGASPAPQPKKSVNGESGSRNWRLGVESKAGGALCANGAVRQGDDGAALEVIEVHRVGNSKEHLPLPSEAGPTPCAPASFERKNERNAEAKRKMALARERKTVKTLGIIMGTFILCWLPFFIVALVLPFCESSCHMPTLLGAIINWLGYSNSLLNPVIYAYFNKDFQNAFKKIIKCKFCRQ
Test: Displacement of [3H]8-OH-DPAT from human 5HT1A receptor expressed in HEK293 cell membranes measured after 120 mins
Scale: pKi equals -log10([C]), with [C] in mol/L.

These recorded examples may help you get a feel for the data.
- CC(C)Oc1ccc2[nH]cc(C3=CCN(Cc4ccccc4)CC3)c2c1: 6.69
- C1=C(c2c[nH]c3ccccc23)CCN(Cc2ccco2)C1: 6.12
- CCOc1ccc2[nH]cc(C3=CCN(Cc4ccco4)CC3)c2c1: 6.31
- CC(C)Oc1ccc2[nH]cc(C3=CCN(Cc4cccs4)CC3)c2c1: 6.67

Consider now this further compound.
-- ask If you can, please state the reported pKi value of CCOc1ccc2[nH]cc(C3=CCN(Cc4cccc(OC)c4)CC3)c2c1 .
-- reply 6.80

---

Molecular target: D(2) dopamine receptor (Homo sapiens)
Assay: Displacement of [3H]Spiperone from human D2S receptor expressed in CHOK1 cell membranes measured after 120 mins
Just a reminder that ties go to Criterion not met: only Ki strictly below 100 nM counts as Criterion met.

Please review the entries below; each comes with its answer.
* COc1ccc2[nH]cc(C3=CCN(Cc4cccs4)CC3)c2c1 | Criterion not met
* COc1ccc2[nH]cc(C3=CCN(Cc4ccco4)CC3)c2c1 | Criterion not met
* COc1ccc2[nH]cc(C3=CCN(Cc4ccccc4)CC3)c2c1 | Criterion met
* CCOc1ccc2[nH]cc(C3=CCN(Cc4ccc(OC)cc4)CC3)c2c1 | Criterion not met

# evaluate next
-- ask hey, is Ki for COc1ccc(CN2CC=C(c3c[nH]c4ccc(OC)cc34)CC2)cc1 lower than 100 nM or not?
-- reply Criterion not met
